Hey, just so you know, these numbers are from patent US20150307520A1.

Target: p110β/p85α (Homo sapiens, UniProt P42338)
Sequence (P42338 whole entry): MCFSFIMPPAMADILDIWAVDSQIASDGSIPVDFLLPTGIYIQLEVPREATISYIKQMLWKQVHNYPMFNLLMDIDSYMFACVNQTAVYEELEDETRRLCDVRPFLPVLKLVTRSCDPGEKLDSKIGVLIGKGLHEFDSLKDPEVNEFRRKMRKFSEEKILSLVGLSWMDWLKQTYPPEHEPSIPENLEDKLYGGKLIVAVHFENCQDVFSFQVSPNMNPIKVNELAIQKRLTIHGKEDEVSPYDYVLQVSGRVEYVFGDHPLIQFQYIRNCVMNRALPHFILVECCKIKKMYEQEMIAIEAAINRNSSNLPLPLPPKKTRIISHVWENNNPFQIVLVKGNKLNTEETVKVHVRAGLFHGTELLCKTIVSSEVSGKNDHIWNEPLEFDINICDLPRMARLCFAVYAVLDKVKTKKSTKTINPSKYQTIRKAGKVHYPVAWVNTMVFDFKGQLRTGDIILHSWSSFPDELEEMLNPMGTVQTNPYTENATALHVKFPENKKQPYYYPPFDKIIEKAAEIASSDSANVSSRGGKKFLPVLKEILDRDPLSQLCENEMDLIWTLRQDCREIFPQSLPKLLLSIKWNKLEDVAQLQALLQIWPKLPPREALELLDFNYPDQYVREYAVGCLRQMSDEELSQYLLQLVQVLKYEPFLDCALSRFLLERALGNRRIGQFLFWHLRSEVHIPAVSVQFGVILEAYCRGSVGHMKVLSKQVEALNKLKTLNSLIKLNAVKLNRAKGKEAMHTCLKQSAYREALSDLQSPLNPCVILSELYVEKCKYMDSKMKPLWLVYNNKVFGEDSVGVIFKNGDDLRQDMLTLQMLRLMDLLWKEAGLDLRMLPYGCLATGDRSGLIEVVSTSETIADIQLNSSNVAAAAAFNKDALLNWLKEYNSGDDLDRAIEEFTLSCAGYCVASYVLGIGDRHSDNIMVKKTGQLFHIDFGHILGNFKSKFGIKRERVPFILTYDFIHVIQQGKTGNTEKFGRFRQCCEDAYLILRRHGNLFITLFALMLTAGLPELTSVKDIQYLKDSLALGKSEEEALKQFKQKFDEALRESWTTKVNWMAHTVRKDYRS
Sequence (P27986 2-724 partner): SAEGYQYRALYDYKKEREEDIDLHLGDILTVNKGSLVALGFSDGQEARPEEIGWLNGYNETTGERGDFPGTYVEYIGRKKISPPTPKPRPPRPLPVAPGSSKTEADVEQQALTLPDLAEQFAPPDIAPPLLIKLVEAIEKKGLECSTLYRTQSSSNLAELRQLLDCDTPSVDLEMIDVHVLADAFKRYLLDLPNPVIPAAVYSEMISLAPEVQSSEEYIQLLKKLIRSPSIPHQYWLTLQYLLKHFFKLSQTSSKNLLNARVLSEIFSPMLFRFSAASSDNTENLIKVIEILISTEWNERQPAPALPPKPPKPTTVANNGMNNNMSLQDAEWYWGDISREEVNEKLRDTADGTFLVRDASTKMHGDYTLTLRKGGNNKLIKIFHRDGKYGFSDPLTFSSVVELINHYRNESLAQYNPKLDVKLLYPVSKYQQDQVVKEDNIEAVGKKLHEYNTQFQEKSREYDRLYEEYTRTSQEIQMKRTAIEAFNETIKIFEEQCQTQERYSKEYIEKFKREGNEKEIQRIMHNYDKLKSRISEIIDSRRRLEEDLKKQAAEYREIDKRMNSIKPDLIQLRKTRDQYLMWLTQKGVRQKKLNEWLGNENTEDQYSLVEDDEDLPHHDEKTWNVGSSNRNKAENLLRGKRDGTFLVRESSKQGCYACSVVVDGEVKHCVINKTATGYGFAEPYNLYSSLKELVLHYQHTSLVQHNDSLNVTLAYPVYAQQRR
Test: Transcreener KINASE Assay, kinase inhibition of p110β/p85α
Format: biochemical
Details: 1 uM test compound
Property name: PI3Kβ IH % @ 1 uM

Which PI3Kβ IH % @ 1 uM value is on record for CC(Nc1nc(N)nc2c1C(=O)CCN2)c1cn2ccc(F)c2c(=O)n1-c1ccccc1 (single isomer, unassigned) ?
>100%

Returns the measured PI3Kβ IH % @ 1 uM for the input molecule. Input: CC(Nc1ncnc2[nH]cc(C#N)c12)c1cc2ncc(Cl)n2c(=O)n1-c1ccccc1 (stereo not drawn)
>100%

Field request: PI3Kβ IH % @ 1 uM | item: N#Cc1c[nH]c2ncnc(N3C[C@@H](F)C[C@H]3c3nn4ccc(Cl)c4c(=O)n3-c3ccccc3)c12
>100%
